Reported values of tissue uptake at 1 h for individual entries
Procedure summary: Bioassay: distribution of I-123-labeled compounds in organs of rats after tail vein injection (percent dose/gram, brain/blood ratio)
Type: in vivo, Female Sprague-Dawley rats
Condition parameters: rat, iv, heart, 60 minutes post-injection, 0.05 to 1.0 mCi, two rats, read-out: Percent Dose/Gram Heart 60 min.
Procedure: Female Sprague-Dawley rats weighing approximately 150 g were anesthetized with sodium pentobarbital and were injected in a tail vein with from 0.05 to 1.0 mCi (in a volume of 0.2 to 0.5 ml) of the I-123-labeled compound. […] Two animals each were sacrificed at 5 minutes and 60 minutes post-injection, the tails discarded and the amount of activity in various organs determined. […] The ratio of brain-to-blood activity was calculated as a percent of administered dose per gram.
Form entry: value (%ID/g) — number only.

Worked examples follow.
Compound	tissue uptake at 1 h / %ID/g
CC(C)NCc1ccccc1[123I] [I--123-N--isopropyl-o-iodobenzylamine, I-123-N-isopropyl-o-iodobenzylamine]	0.47
N#CC(Nc1ccccc1)c1ccccc1[123I] (stereo not drawn)	0.24
CC(C)N[C@@H](C)Cc1ccc([123I])cc1 [I--123-S--N--isopropyl-p-iodoamphetamine, I-123-S-N-isopropyl-p-iodoamphetamine]	0.85
CC(C)Nc1ccccc1[123I] [I--123-N--isopropyl-o-iodoaniline]	0.29
[123I]c1ccccc1CNc1ccccc1 [I--123-N--o-iodobenzylaniline]	0.31

Please look at the following compound next.
Exercise: Recorded tissue uptake at 1 h of CC(C)Nc1ccc([123I])cc1 [I--123-N--isopropyl-p-iodoaniline] , please.
Solution: 0.61

###

Procedure summary: Bioassay: distribution of I-123-labeled compounds in organs of rats after tail vein injection (percent dose/gram, brain/blood ratio)
Assay type: in vivo, Female Sprague-Dawley rats
Condition parameters: 5 minutes post-injection
// reported Brain/Blood Ratio 5 min. per item
No unit in the answer, please; the number alone is enough.

Example results:
Compound	Brain/Blood Ratio 5 min.
CC(Cc1ccccc1)Nc1ccccc1[123I] (racemic) [I--123-N--(o-iodophenyl)amphetamine (dl)]	1.81
CCCNCCc1ccccc1[123I] [I--123-N--propyl-o-iodo-β-phenethylamine]	4.03

Exercise: # query: Brain/Blood Ratio 5 min. of entry CCCNCc1ccccc1[123I] [I--123-N--propyl-o-iodobenzylamine]
Solution: 3.81

Exercise: Next compound up: N#CC(N)c1ccccc1[123I] (stereo not drawn) [I--123-α-amino-o-iodophenylacetonitrile]
Solution: 1.74

Exercise: Please answer likewise for CC1CCCC(C)N1Cc1ccccc1[123I] (centres unmarked)
Solution: 3.32

###

Procedure summary: Bioassay: distribution of I-123-labeled compounds in organs of rats after tail vein injection (percent dose/gram, brain/blood ratio)
Assay type: in vivo, Female Sprague-Dawley rats
Condition parameters: rat, iv, heart, 5 minutes post-injection, 0.05 to 1.0 mCi, two rats, read-out: Percent Dose/Gram Heart 5 min.
Value kind: tissue uptake at 5 min (%ID/g)
The reply should contain only the number, in %ID/g.

Field: example entries. Status: answers known.
Compound	Measure unit	tissue uptake at 5 min
CC(C)Nc1ccccc1[123I] [I--123-N--isopropyl-o-iodoaniline]	%ID/g	0.75
N#CC(N)c1ccccc1[123I] (stereo not drawn) [I--123-α-amino-o-iodophenylacetonitrile]	%ID/g	0.86
[123I]c1ccccc1NCc1ccccc1 [I--123-N--benzyl-o-iodoaniline]	%ID/g	0.34
[123I]c1ccc(NCc2ccccc2)cc1 [I--123-N--benzyl-p-iodoaniline]	%ID/g	1.28
CC(C)N[C@@H](C)Cc1ccc([123I])cc1 [I--123-S--N--isopropyl-p-iodoamphetamine, I-123-S-N-isopropyl-p-iodoamphetamine]	%ID/g	1.28
C[C@H](N)Cc1ccc([123I])cc1 [I--123-S--p-iodoamphetamine, I-123-S-p-iodoamphetamine]	%ID/g	1.52
[123I]c1ccccc1CN(CCc1ccccc1)CCc1ccccc1	%ID/g	3.61
CC(C)N(Cc1ccccc1[123I])C(C)C	%ID/g	2.12

Exercise: // returns reported tissue uptake at 5 min for input CC(C)NCCc1ccccc1[123I]
Solution: 0.88

Exercise: Query CCCNCc1ccccc1[123I] [I--123-N--propyl-o-iodobenzylamine] next
Solution: 0.77
